Quick list: pEC50 per entry.
tested on: symmetric di-methyl arginine in Z-138 cells; assay: Z-138 Methylation Assay (In Cell Western for symmetric di-methyl arginine and DNA content); assay type: cell-based; conditions: Homo sapiens, 96 hours incubation, read-out: ICW EC50
pEC50: −log10 of the molar value.

[
  {
    "compound": "O=c1cc(-c2ccccc2)ccn1C[C@H](O)CN1CCc2ccccc2C1",
    "pEC50": "< 4.30"
  },
  {
    "compound": "O=C1CN(c2ccccc2F)CCN1CC(O)CN1CCc2ccccc2C1 (stereo not drawn)",
    "pEC50": "< 4.30"
  },
  {
    "compound": "O=c1cc(Nc2ccccc2)ccn1C[C@H](O)CN1CCc2ccccc2C1",
    "pEC50": "6.00 to 7.00"
  },
  {
    "compound": "O=C1CN(c2ccc(Cl)cc2)CCN1CC(O)CN1CCc2ccccc2C1 (stereo not drawn)",
    "pEC50": "6.00 to 7.00"
  },
  {
    "compound": "O=C1CN(c2ccc(CO)cc2)CCN1CC(O)CN1CCc2ccccc2C1 (stereo not drawn)",
    "pEC50": "5.00 to 6.00"
  },
  {
    "compound": "CN(C)c1ccccc1N1CCN(C[C@H](O)CN2CCc3ccccc3C2)C(=O)C1",
    "pEC50": "6.00 to 7.00"
  },
  {
    "compound": "O=C1Cc2ccccc2N1CC(O)CN1CCc2ccccc2C1 (stereo not drawn)",
    "pEC50": "6.00 to 7.00"
  },
  {
    "compound": "O=C1CN(c2cncc(N3CCOCC3)c2)CCN1CC(O)CN1CCc2ccccc2C1 (stereo not drawn)",
    "pEC50": "6.00 to 7.00"
  },
  {
    "compound": "O=C1CN(c2ccccc2Cl)CCN1CC(O)CN1CCc2ccccc2C1 (stereo not drawn)",
    "pEC50": "6.00 to 7.00"
  }
]

----------
Tested on: symmetric di-methyl arginine in Z-138 cells
Experiment: Z-138 Methylation Assay (In Cell Western for symmetric di-methyl arginine and DNA content)
Assay type: cell-based
Conditions: Homo sapiens, 96 hours incubation, read-out: ICW EC50
Method: [formula] [formula] Where top and bottom are the normally allowed to float, but may be fixed at 100 or 0 respectively in a 3-parameter fit. The Hill Coefficient normally allowed to float but may also be fixed at 1 in a 3-parameter fit. Y is the % inhibition and X is the compound concentration. Z-138 Methylation Assay Z-138 suspension cells were purchased from ATCC (American Type Culture Collection, Manassas, Va.). […] First, the ratio for each well was determined by: […]
pEC50: −log10 of the molar value.
Quick list: pEC50 per entry.

[
  {
    "molecule": "O=C1COc2ccccc2N1CC(O)CN1CCc2ccccc2C1 (stereo not drawn)",
    "pEC50": "6.00 to 7.00"
  },
  {
    "molecule": "O=C1CN(c2cccc(F)c2)CCN1CC(O)CN1CCc2ccccc2C1 (stereo not drawn)",
    "pEC50": "6.00 to 7.00"
  },
  {
    "molecule": "O=C1CN(c2cccc3cccnc23)CCN1CC(O)CN1CCc2ccccc2C1 (stereo not drawn)",
    "pEC50": "6.00 to 7.00"
  },
  {
    "molecule": "Cc1ccc(N2CCN(CC(O)CN3CCc4ccccc4C3)C(=O)C2)cc1 (stereo not drawn)",
    "pEC50": "6.00 to 7.00"
  },
  {
    "molecule": "Cc1ccccc1N1CCN(CC(O)CN2CCc3ccccc3C2)C(=O)C1 (stereo not drawn)",
    "pEC50": "< 4.30"
  },
  {
    "molecule": "O=C(NC1CCOCC1)c1ccn(CC(O)CN2CCc3ccccc3C2)c(=O)c1 (stereo not drawn)",
    "pEC50": "5.00 to 6.00"
  },
  {
    "molecule": "O=c1cc(-c2ccccc2)ccn1C[C@@H](O)CN1CCc2ccccc2C1",
    "pEC50": "< 4.30"
  },
  {
    "molecule": "O=C1CN(c2cccc(N3CCOCC3)c2)CCN1CC(O)CN1CCc2ccccc2C1 (stereo not drawn)",
    "pEC50": "> 7.00"
  },
  {
    "molecule": "O=C1CN(c2cccc(Cl)c2)CCN1CC(O)CN1CCc2ccccc2C1 (stereo not drawn)",
    "pEC50": "5.00 to 6.00"
  }
]

Ref: patent US10150758B2
